molecular target: IKZF2 (Homo sapiens (Human), UniProt Q96SW2+Q9UKS7); assay: IKZF2 HiBiT Assay (Jurkat-IKZF2-HiBiT cell line); format: cell-based; conditions: Jurkat-IKZF2-HiBiT cells, 24 hours; read-out: HiBit assay degradation analysis Dmax
Sequence (Q9UKS7 whole entry): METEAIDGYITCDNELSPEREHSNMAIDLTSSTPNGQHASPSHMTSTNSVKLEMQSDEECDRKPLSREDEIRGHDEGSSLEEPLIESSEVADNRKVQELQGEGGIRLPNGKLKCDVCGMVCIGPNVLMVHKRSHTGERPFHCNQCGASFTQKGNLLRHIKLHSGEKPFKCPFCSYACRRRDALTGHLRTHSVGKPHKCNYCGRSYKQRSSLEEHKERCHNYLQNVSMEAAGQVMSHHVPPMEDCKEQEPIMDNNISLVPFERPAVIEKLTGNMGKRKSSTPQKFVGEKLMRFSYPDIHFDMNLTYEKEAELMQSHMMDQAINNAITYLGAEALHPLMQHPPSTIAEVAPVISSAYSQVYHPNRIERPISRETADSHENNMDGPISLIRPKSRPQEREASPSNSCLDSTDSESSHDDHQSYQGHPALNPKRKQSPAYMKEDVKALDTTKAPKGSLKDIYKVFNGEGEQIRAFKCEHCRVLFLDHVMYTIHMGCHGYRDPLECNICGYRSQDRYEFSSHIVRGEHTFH
Sequence (Q96SW2 whole entry): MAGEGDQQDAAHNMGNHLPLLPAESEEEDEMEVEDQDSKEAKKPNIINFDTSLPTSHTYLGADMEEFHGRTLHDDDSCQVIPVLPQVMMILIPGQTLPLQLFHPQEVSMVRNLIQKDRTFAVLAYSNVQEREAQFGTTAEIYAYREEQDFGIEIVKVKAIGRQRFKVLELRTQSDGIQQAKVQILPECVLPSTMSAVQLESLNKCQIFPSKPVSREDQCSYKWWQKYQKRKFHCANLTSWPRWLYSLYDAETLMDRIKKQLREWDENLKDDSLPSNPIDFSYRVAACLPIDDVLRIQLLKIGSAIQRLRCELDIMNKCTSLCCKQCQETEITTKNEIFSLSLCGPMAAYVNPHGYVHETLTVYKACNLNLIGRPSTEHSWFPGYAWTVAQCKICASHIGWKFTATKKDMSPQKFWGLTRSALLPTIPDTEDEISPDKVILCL
Sequence (Q16531 whole entry partner): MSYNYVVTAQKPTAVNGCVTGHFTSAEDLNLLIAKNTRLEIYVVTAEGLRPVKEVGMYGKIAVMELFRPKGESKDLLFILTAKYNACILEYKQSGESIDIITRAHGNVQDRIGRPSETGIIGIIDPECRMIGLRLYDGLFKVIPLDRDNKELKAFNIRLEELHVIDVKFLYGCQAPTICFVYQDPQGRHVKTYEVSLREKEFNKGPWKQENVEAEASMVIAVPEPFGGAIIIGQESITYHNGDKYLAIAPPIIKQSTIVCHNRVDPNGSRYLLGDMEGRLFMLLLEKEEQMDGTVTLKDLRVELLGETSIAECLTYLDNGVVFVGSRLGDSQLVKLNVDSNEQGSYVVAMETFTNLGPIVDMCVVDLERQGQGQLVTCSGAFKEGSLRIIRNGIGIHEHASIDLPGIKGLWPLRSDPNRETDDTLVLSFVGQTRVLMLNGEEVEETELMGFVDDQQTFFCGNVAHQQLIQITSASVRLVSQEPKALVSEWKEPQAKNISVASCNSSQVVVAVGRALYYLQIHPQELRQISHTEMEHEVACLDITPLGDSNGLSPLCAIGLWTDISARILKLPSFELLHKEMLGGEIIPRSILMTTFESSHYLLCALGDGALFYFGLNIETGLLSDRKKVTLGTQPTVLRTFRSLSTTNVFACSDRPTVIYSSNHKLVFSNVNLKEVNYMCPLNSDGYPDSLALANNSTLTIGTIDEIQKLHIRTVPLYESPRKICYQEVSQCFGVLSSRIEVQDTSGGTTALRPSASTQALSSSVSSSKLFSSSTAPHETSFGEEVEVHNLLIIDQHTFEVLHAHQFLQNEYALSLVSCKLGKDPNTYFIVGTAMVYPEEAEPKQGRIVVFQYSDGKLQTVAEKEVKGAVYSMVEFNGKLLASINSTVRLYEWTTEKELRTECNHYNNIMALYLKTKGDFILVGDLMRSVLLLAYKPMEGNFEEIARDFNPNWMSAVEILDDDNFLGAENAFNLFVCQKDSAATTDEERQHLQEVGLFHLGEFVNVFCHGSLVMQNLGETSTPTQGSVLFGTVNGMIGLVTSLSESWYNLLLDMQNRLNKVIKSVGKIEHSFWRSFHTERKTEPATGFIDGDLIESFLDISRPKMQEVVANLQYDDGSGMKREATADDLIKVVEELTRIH
Quick reference for Dmax among some compounds
assay.metric: Dmax

compound	assay.metric	assay.value
O=C1CCC(N2Cc3c(ccc4c3OCC43CCN(Cc4ccn(-c5ccccc5)n4)CC3)C2=O)C(=O)N1 (stereo not shown)	Dmax	< 40%
Cn1ncc2cc(CN3CCC4(CC3)COc3c4ccc4c3CN(C3CCC(=O)NC3=O)C4=O)ccc21 (stereo not shown)	Dmax	< 40%
O=C1CCC(N2Cc3c(ccc4c3OCC43CCN(Cc4cccc(-c5cnco5)c4)CC3)C2=O)C(=O)N1 (stereo not shown)	Dmax	60 to 80%
CCOc1ccc(CN2CCC3(CC2)COc2c3ccc3c2CN(C2CCC(=O)NC2=O)C3=O)cn1 (stereo not shown)	Dmax	< 40%
CC(C)(O)c1ccc(CN2CCC3(CC2)COc2c3ccc3c2CN(C2CCC(=O)NC2=O)C3=O)cc1 (stereo not shown)	Dmax	< 40%
O=C1CCC(N2Cc3c(ccc4c3OCC43CCN(Cc4cnn(CC5CCOCC5)c4)CC3)C2=O)C(=O)N1 (stereo not shown)	Dmax	60 to 80%
O=C1CCC(N2Cc3c(ccc4c3OCC43CCN(Cc4cccc5cccc(F)c45)CC3)C2=O)C(=O)N1 (stereo not shown)	Dmax	60 to 80%

// data source = patent US20250215012A1
